- target_or_test_system: Muscarinic acetylcholine receptor
- assay_details: Inhibition of [3H]QNB binding to muscarinic receptor of rat cortex
experimental_readout: Ki (µM)
Quick reminder: number only, in µM, skip the unit.

> print(dat)
                                   molecule  experimental.readout  result.value
1  COC(=O)C1C2CC3CCC1N3C/C2=C\c1ccc(-c2ccc(F)cc2)cc1 (stereo not given)                    Ki          1.06

Field: next molecule
Given the molecule COC(=O)C1C2CC3CCC1N3C/C2=C\C#Cc1ccccc1 (stereo not given) , what is its reported Ki?
11.9

* * *

- target_or_test_system: Norepinephrine transporter (Rattus norvegicus, UniProt Q9WTR4)
- Sequence (Q9WTR4 whole entry): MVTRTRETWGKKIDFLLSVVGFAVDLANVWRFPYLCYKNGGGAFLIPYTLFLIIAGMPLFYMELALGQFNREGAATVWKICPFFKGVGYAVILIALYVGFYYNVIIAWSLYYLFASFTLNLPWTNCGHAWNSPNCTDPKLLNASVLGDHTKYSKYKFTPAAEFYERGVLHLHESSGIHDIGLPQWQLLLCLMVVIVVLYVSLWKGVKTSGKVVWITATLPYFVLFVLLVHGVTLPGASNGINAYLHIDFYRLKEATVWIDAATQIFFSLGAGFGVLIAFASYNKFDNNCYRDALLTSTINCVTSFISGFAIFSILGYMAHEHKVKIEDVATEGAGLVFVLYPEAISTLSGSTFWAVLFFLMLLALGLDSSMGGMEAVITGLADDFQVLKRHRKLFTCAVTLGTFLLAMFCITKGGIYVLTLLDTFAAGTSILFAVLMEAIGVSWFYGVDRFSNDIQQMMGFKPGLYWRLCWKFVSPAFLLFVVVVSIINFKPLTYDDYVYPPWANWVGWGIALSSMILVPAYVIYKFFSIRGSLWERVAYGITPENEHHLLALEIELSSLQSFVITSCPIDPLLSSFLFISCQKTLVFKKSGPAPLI
- assay_details: Inhibitory constant against reuptake of [3H]NE at norepinephrine transporter of rat parietal-occipital cortex
experimental_readout: Ki (nM)
Quick reminder: number only, in nM, skip the unit.

> print(dat)
                                   compound  result.value
1  COC(=O)C1C2CC3CCC1N3C/C2=C\c1ccc(-c2ccccc2F)cc1 (stereo not drawn)           393
2  COC(=O)C1C2CC3CCC1N3C/C2=C\c1ccc(-c2cccc(OC)c2)cc1 (stereo not drawn)           9.4
3  COC(=O)C1C2CC3CCC1N3C/C2=C\C#Cc1c(F)cccc1F (stereo not drawn)           5.3
4  COC(=O)C1C2CC3CCC1N3C/C2=C\C#Cc1ccc(F)c(F)c1 (stereo not drawn)           110

Given the compound COC(=O)C1C2CC3CCC1N3C/C2=C\C#Cc1cccs1 (stereo not drawn) , what is its reported Ki?
1570

Given the compound COC(=O)C1C2CC3CCC1N3C/C2=C\C#Cc1ccc(F)cc1 (stereo not drawn) , what is its reported Ki?
104

Given the compound COC(=O)C1C2CC3CCC1N3C/C2=C\c1ccc(-c2ccc(F)cc2)cc1 (stereo not drawn) , what is its reported Ki?
53

Given the compound COC(=O)C1C2CC3CCC1N3C/C2=C\C#Cc1cccc(F)c1 (stereo not drawn) , what is its reported Ki?
2110

Source of measurements: ChEMBL document CHEMBL1145240
